- tested.system: T1, GIP receptor (UniProt P48546 22-466, limits assumed)
- T1 sequence (looked up): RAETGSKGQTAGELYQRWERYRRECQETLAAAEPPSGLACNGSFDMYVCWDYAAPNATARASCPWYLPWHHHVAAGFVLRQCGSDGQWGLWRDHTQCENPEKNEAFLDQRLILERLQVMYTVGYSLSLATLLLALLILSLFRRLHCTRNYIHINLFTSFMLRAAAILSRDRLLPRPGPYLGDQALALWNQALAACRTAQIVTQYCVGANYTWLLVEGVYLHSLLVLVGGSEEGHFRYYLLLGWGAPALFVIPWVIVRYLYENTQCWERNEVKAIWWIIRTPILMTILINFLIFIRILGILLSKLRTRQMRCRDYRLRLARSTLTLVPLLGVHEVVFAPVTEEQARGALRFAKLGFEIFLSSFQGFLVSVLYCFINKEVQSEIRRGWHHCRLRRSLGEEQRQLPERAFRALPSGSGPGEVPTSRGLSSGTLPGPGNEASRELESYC
- assay.procedure: cell-based or functional assay
Numbered stars: 1 amine (or outer) side, 2 acyl side, 3 side chain; on linkers, the order of the positions; unused ones are H or OH. Square brackets hold non-standard residues; d marks the D form. Side chains are listed from the residue outwards. Ends that are not written are not given here. * marks the point of attachment. γGlu = O=C(O)[C@H](CCC(=O)[*:2])N[*:1]; Desaminotyrosyl = O=C(CCc1ccc(O)cc1)*; Palmitoyl = CCCCCCCCCCCCCCCC(=O)*; dthioAla = not defined here; thioAla = not defined here; Orn = NCCC[C@H](N)C(=O)O; Aib = CC(C)(N)C(=O)O; Sar = CNCC(=O)O
EC50 at GIP Receptor (cAMP luciferase reporter, HEK293) strictly less than 0.04 nM = True. Otherwise False.

[thioAla]PQGTFTSDK([γGlu-Palmitoyl])SKYLDERAAQDFVQWLLEGGPSSGAPPPS-NH2 (reading uncertain) [peptide of SEQ ID NO: 33] = False
XAQGTFTSDKSKYLDERAAQDFVQWLLEGGPSSGAPPPS (position 1 His; position 2 β-Ala; C-terminal amide; other non-coded or acylated residues as in the sequence listing) [peptide of SEQ ID NO: 26] = False
Ac-[Orn]AQGTFTSDK([γGlu-Palmitoyl])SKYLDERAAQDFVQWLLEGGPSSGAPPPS-NH2 [peptide of SEQ ID NO: 30] = False
Ac-[dthioAla]AQGTFTSDK([γGlu-Palmitoyl])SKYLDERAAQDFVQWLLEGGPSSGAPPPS-NH2 (reading uncertain) [peptide of SEQ ID NO: 17] = True
[Desaminotyrosyl]AQGTFTSDK([γGlu-Palmitoyl])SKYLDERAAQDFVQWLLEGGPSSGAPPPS-NH2 [peptide of SEQ ID NO: 11] = True

Confirm or reject: EC50 at GIP Receptor (cAMP luciferase reporter, HEK293) of H[Sar]QGTFTSDK([γGlu-Palmitoyl])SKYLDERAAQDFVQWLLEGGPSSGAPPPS-NH2 [peptide of SEQ ID NO: 28] lies strictly below 0.04 nM False

// query: H[Aib]QGTFTSDK([γGlu-Palmitoyl])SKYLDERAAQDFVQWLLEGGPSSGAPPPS-NH2 [peptide of SEQ ID NO: 37] True

// query: [thioAla]GQGTFTSDK([γGlu-Palmitoyl])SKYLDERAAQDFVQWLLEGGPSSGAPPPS-NH2 (reading uncertain) [peptide of SEQ ID NO: 29] False

Values were extracted from patent US20180105569A1.
